Data origin: patent EP4785956A2

binders and their reported koff
# experimental target: T1, recombinant human C5 (human, UniProt P01031 20-1676)
# T1 construct: The same entry is used here for C5 in normal human serum in the functional rows; also called hC5; rhC5
# assay comment: SPR (BIACORE T200), antibody captured by ProA/G, recombinant human C5 injected, 37 degrees C, pH7.4; pH 7.4

binder	koff / s⁻¹
CFA0599 (antibody, V domains shown) VH: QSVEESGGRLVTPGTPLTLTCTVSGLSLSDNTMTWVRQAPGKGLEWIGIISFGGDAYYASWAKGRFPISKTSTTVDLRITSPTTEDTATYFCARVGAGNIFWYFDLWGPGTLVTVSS VL: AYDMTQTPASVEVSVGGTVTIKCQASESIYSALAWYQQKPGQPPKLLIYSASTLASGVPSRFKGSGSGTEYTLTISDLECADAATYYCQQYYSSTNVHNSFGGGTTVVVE	0.00281
CFA0501 (antibody, V domains shown) VH: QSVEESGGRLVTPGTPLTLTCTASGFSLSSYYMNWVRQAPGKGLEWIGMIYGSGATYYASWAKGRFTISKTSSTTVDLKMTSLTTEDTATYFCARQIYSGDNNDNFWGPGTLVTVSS VL: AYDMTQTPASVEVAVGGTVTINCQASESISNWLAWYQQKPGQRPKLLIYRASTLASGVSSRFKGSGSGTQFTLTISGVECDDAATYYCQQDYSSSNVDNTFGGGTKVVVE	0.00169
